- Tested on: OVCAR-4 ovarian
- experimental_protocol: NCI tumour cell line growth inhibition, 48 h
measure_name: TGI (µM)
Response body: numeric value in µM, unit text excluded.

compound: CC(O)CC(=O)CO[C@H]1[C@H](O)[C@@H](O)[C@@H](O)[C@@H]2NC(=O)c3c(cc4c(c3O)OCO4)[C@H]21 (stereo partly drawn)
observed: 0.287

Now, please, on to the next compound.
Incoming: What TGI value was documented for this compound, CC(=O)OC1CC2C(C)(C)CCC[C@]2(C)C2=C1C(O)=C(C(C)C)C(=O)C2=O (stereo partly drawn) ?
Outgoing: 7.07

---

- Test system: SN12C renal
- experimental_protocol: NCI tumour cell line growth inhibition, 48 h
The following compounds are shown together with reported TGI values.

The examples below pair each entry with its known result.
compound: CC(C)C1CC(CO)(CNc2nc(N)nc(Cl)c2/C=N\O)C1 (stereo not drawn)
measured_on: SN12C renal
TGI: > 89.5 µM
//
compound: O=C(COc1cccc(/C=C2\COc3ccccc3C2=O)c1)c1ccccc1
measured_on: SN12C renal
TGI: 19.8 µM
//
compound: C=C1C(=O)O[C@@H]2C[C@@H]1CC[C@]1(C)O[C@H]1CC/C(C)=C/CC[C@@]2(C)O
measured_on: SN12C renal
TGI: 41.1 µM

Incoming: Please provide the recorded TGI for "Cc1ccc(C(=O)O)c(/C=C2\Cc3cc(C)cc(C)c3C2=O)c1" , tested on SN12C renal.
Outgoing: > 100 µM

Incoming: Please provide the recorded TGI for "N.N.N.N.N.N#Cc1nn[n-]n1.[Cl-].[Co+3]" , tested on SN12C renal.
Outgoing: > 100 µM

Incoming: Please provide the recorded TGI for O=C1CC(C(=O)O)Cc2c(Br)ccc(O)c21 (stereo not drawn) , tested on SN12C renal.
Outgoing: > 100 µM

Incoming: Please provide the recorded TGI for COC(=O)C1CC(c2ccc(Cl)cc2)=NO1 (stereo not drawn) , tested on SN12C renal.
Outgoing: > 100 µM

Incoming: Please provide the recorded TGI for CC(=O)Nc1ncc2c(n1)-c1ccccc1OC2c1ccccc1 (stereo not drawn) , tested on SN12C renal.
Outgoing: > 100 µM

Incoming: Please provide the recorded TGI for "CCOC(=O)c1cc(C2=CCNC2=O)c(-c2cc(C)no2)[nH]1" , tested on SN12C renal.
Outgoing: > 100 µM

Incoming: Please provide the recorded TGI for CC1(c2nc3ccccc3[nH]2)CCC(C#N)C(C)(C)O1 (stereo not drawn) , tested on SN12C renal.
Outgoing: > 100 µM

Incoming: Please provide the recorded TGI for "COc1ccc(NC(=S)C#N)cc1" , tested on SN12C renal.
Outgoing: > 100 µM

Incoming: Please provide the recorded TGI for "COc1ccc(-c2[nH]c(-c3ccc(OC)cc3)c(-c3ccccn3)c2-c2ccccn2)cc1" , tested on SN12C renal.
Outgoing: > 100 µM

Incoming: Please provide the recorded TGI for "O=[N+]([O-])c1ccc(Cc2nc3cc4ccccc4cc3[nH]2)cc1C(F)(F)F" , tested on SN12C renal.
Outgoing: 38 µM

Incoming: Please provide the recorded TGI for Cc1ccc(N=NN(C)C(C)C(O)Cc2ccccc2)cc1 (stereo not drawn) , tested on SN12C renal.
Outgoing: > 100 µM

Incoming: Please provide the recorded TGI for "COc1ccc(C[n+]2cccc(O)c2)cc1" , tested on SN12C renal.
Outgoing: > 100 µM

Incoming: Please provide the recorded TGI for CCC1(OC(=O)CNC)C(=O)OCc2c1cc1n(c2=O)Cc2cc3ccccc3nc2-1 (stereo not drawn) , tested on SN12C renal.
Outgoing: 0.849 µM

Incoming: Please provide the recorded TGI for "O=C(O)CCC(=O)Oc1ccc(O)c2c1CCCC2=O" , tested on SN12C renal.
Outgoing: > 100 µM

Incoming: Please provide the recorded TGI for "CC(=O)n1nnc2ccc([N+](=O)[O-])cc21" , tested on SN12C renal.
Outgoing: > 100 µM

Incoming: Please provide the recorded TGI for "Cn1nc(-c2ccccc2)c2c(/C=C/c3ccc(Cl)cc3)onc2c1=O" , tested on SN12C renal.
Outgoing: > 100 µM

Incoming: Please provide the recorded TGI for "CN1C(=O)N/C(=C\c2ccc(S(=O)(=O)N/N=C/c3ccccc3)cc2)C1=O" , tested on SN12C renal.
Outgoing: > 100 µM

Incoming: Please provide the recorded TGI for "COc1ccc(Cc2cc(OC)c(OC)c(OC)c2)cc1" , tested on SN12C renal.
Outgoing: > 89.3 µM

Incoming: Please provide the recorded TGI for "[N-]=[N+]=NCCCn1c2c(c3ccc([N+](=O)[O-])cc3c1=O)C(=O)c1cc(I)ccc1-2" , tested on SN12C renal.
Outgoing: > 100 µM

Incoming: Please provide the recorded TGI for "CSC1=C(SC)C(=O)c2cn(C)c(=O)cc2C1=O" , tested on SN12C renal.
Outgoing: 12.3 µM
